Molecular target: Nuclear receptor subfamily 1 group I member 2 (Homo sapiens) (UniProt O75469)
Sequence (O75469 whole entry, looked up): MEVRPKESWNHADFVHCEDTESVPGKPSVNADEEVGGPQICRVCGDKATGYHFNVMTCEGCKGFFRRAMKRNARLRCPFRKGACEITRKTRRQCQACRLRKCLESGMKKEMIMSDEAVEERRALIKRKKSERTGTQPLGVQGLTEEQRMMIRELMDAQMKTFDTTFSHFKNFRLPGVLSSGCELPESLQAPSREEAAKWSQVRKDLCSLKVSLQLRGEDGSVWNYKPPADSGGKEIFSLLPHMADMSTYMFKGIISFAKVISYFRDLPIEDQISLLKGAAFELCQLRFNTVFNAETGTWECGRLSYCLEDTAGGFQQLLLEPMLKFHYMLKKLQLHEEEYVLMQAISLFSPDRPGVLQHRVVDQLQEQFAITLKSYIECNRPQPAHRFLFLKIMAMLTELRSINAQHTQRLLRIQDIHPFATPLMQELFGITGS
Assay: Human pregnane X receptor (PXR) small molecule agonists, qHTS assay (AID 1346982); note: nearly all actives have a fitted effect of over 35% in size
Settings: PXR-Luc HepG2, CYP3A4 luciferase reporter, 24 h; series mostly up to 92.4 µM
Records with an inconclusive call do not appear. Active and inactive are the calls of the source. Calls come from the whole dose curve; as a rule, active = well fitted activation curve with a large enough effect in the repeat runs; inconclusive = weak or mixed curves; inactive = no such curve, though single readings can be large or run the other way.
Outcomes: yes (active), no (inactive)

Compound | Classification
Cc1ncsc1CCCl | no
Nc1ccccc1Cl | no
COC(=O)C1=CCCN(C)C1 | no
O=C1OC(CCN2CCCCC2)OC1(c1ccccc1)c1ccccc1 (centres undefined) | no
COP(=S)(OC)Oc1c(Cl)cc(C)cc1Cl | yes
CSc1nc(N=[N+]=[N-])nc(NC(C)C)n1 | yes
c1cc2c(c(N3CCNCC3)c1)OCCO2 | no
CC1(C(=O)Nc2ccc(O)c(Cl)c2Cl)CCCCC1 | yes
CC1(C)CON(Cc2ccccc2Cl)C1=O | yes
Cc1nnc2n1-c1sc(CCC(=O)N3CCOCC3)cc1C(c1ccccc1Cl)=NC2 | no
CC1CN1P(=O)(N1CC1C)N1CC1C (centres undefined) | no
O=C(O)c1cccc(Cl)c1 | no
CN1C[C@@H](NS(=O)(=O)N(C)C)C[C@@H]2c3cccc4c3c(cn4C)C[C@H]21 | yes
COc1ncc(F)c2nc(S(=O)(=O)Nc3c(F)cccc3F)nn12 | no
NC(=O)c1cc([N+](=O)[O-])cc([N+](=O)[O-])c1 | no
CC(C(=O)c1ccccc1)N(C)C (centres undefined) | no
O=C(O)C(Br)CBr (centres undefined) | yes
CCCCOC(=O)c1ccccc1C(=O)O | no
Clc1ccccc1N1CCNCC1 | no
CC1=NNC(=O)N(/N=C/c2cccnc2)C1 | no
ClC(Br)Br | no
C=C(C)CN(CC)c1c([N+](=O)[O-])cc(C(F)(F)F)cc1[N+](=O)[O-] | yes
COc1cc(OC)nc(NC(=O)NS(=O)(=O)c2ncccc2C(=O)N(C)C)n1 | no
CCOP(=S)(OCC)Oc1nc(Cl)n(C(C)C)n1 | yes
COC(=O)c1ccccc1S(=O)(=O)NC(=O)Nc1nc(C)cc(C)n1 | no
Cc1nc(N)nc(N)n1 | no
CC(=O)C(Cl)Cl | no
CCOC(=O)CP(=O)(OCC)OCC | no
ClC(Cl)Br | no
O=[N+]([O-])c1ccc2c3c(cccc13)CC2 | yes
O=C(CCN1CC1)OCC(CO)(COC(=O)CCN1CC1)COC(=O)CCN1CC1 | no
CCC(=O)C(CCN(C)C)(c1ccccc1)c1ccccc1 | yes
CC(N)=S | no
O=C(Nc1ccccc1)c1ccccc1I | yes
CCCCOP(=O)(O)OCCCC | no
N#Cc1ccncc1 | no
CC1(C)COP(Oc2ccccc2)OC1 | no
COc1cc(OC)nc(Oc2cccc(Oc3nc(OC)cc(OC)n3)c2C(=O)O)n1 | no
CCS(=O)(=O)CCSP(=O)(OC)OC | no
